assay: Combined results of the two pilot pharmacokinetic studies (first in human and dose escalation); assay type: in vivo; conditions: human, plasma, po, 15 mg; read-out: mean oral bioavailability
Experimental Readout: bioavailability (%)
Quick reminder: number only, in %, skip the unit.

Please report the recorded bioavailability for NCC(CC(=O)O)c1ccc(Cl)cc1 (stereo not shown) [baclofen, 4-amino-3-[4-chlorophenyl] butanoic acid] .
85

###

assay: Clinical bioequivalence study of baclofen injection compared to baclofen tablets in healthy adult volunteers; assay type: in vivo, human; conditions: 16 mg IV over 180 minutes; 90% CI 89.7-94.6%
Experimental Readout: geometric mean ratio vs. Treatment D (20 mg oral tablet) for AUClast (%)
Give the value in % but do not write % after it.

// query geometric mean ratio vs. Treatment D (20 mg oral tablet) for AUClast value for entry NCC(CC(=O)O)c1ccc(Cl)cc1 (stereo not shown) [baclofen, 4-amino-3-[4-chlorophenyl] butanoic acid]
92.1
